# System: green foxtail
# assay-method-text: Upland pre-emergence treatment test, green foxtail; also: ranges in brackets are in %
# Format: in vivo, green foxtail (Setaria viridis)
# reported-conditions: pre-emergence soil surface spray, 80 g/ha, 20th day after treatment, greenhouse
experimental-readout: Herbicidal Efficacy EE = Green foxtail

QUERY: Field request: Herbicidal Efficacy EE = Green foxtail | item: CCn1ncc(C(=O)c2cc(C)c3c(c2C)C(C)CS3(=O)=O)c1O (stereo not shown) [Compound (B), reference compound]
RESULT: 5 (0)

----------
# Test system: common ragweed
# assay-method-text: Upland post-emergence treatment test, common ragweed; also: ranges in brackets are in %
# Format: in vivo, common ragweed (Ambrosia artemisilfolia)
# reported-conditions: post-emergence spray at 3-4 leaf stage, 80 g/ha, 30th day after treatment, greenhouse
List of Herbicidal Efficacy DD = Common ragweed values.

The following molecules have reported results that may help.
CCS(=O)(=O)Oc1c(C(=O)c2ccc3c(c2C)C(C)(C)CS3(=O)=O)cnn1C : 5 (0)
COc1ccc(S(=O)(=O)Oc2c(C(=O)c3ccc4c(c3C)C(C)(C)CS4(=O)=O)cnn2C)cc1 : 5 (0)
CCc1ccc(S(=O)(=O)Oc2c(C(=O)c3ccc4c(c3C)C(C)(C)CS4(=O)=O)cnn2C)cc1 : 5 (0)

Now let's try a different one.
QUERY: What value of Herbicidal Efficacy DD = Common ragweed has been reported for the following molecule? `CCCCCCCCS(=O)(=O)Oc1c(C(=O)c2ccc3c(c2C)C(C)(C)CS3(=O)=O)cnn1C`
RESULT: 5 (0)
